Biological target: T1, HLA-A*02:01 (human)
T1 construct: the tested peptide takes its place; also called peptide-receptive MHC molecules; MHC class I
Assay: UV-ligand exchange, anti-β2m ELISA; grade of peptide exchange yield
Text: Candidate peptides for T cell based therapies according to the present invention were further tested for their MHC binding capacity (affinity). The individual peptide-MHC complexes were produced by UV-ligand exchange, where a UV-sensitive peptide is cleaved upon UV-irradiation, and exchanged with the peptide of interest as analyzed. Only peptide candidates that can effectively bind and stabilize the peptide-receptive MHC molecules prevent dissociation of the MHC complexes. […]
For each entry below, report its peptide exchange yield value.

Asked: Given the entry YLTNEGIAHL [YLTNEGIAHL (SEQ ID NO: 92)] , report its measured peptide exchange yield.
Given back: ≥ 75%

Asked: Consider next the binder VVYEGQLISI [VVYEGQLISI (SEQ ID NO: 79)] in the same way.
Given back: 50 to 75%

Asked: Consider next the binder KLFPGFEIETV [KLFPGFEIETV (SEQ ID NO: 136)] in the same way.
Given back: ≥ 75%

Asked: Consider next the binder QIIDAINKV [QIIDAINKV (SEQ ID NO: 9)] in the same way.
Given back: 20 to 50%

Asked: Consider next the binder ALFQPHLINV [ALFQPHLINV (SEQ ID NO: 150)] in the same way.
Given back: ≥ 75%

Asked: Consider next the binder SVFPGARLL [SVFPGARLL (SEQ ID NO: 62)] in the same way.
Given back: 10 to 20%

Asked: Consider next the binder FLFPSQYVDV [FLFPSQYVDV (SEQ ID NO: 35)] in the same way.
Given back: 50 to 75%
